All figures here come from paper PMC11859928.

Tested on: OVCAR-3
Assay: NCI one-dose assay
Assay type: cell-based
Settings: Homo sapiens, OVCAR-3, Ovarian cancer, read-out: Cell growth inhibition %
Reported property: inhibition at 10 µM (%)

* Cc1ccc(C(=O)CSc2nnc(-c3c[nH]c4ccccc34)n2-c2ccccc2)cc1 [Compound 6h] | 34.8
* COc1ccc(C(=O)CSc2nnc(-c3c[nH]c4ccccc34)n2-c2ccccc2)cc1 [Compound 6g] | 46.4
* O=C(CSc1nnc(-c2c[nH]c3ccccc23)n1-c1ccccc1)c1ccc(Br)cc1 [Compound 6i] | 57.5
* C=CCn1c(SC/C(=N\O)c2ccc(C)cc2)nnc1-c1c[nH]c2ccccc12 [Compound 7c] | -6.11
* O/N=C(\CSc1nnc(-c2c[nH]c3ccccc23)n1-c1ccccc1)c1ccccc1 [Compound 7f] | 45
* C=CCn1c(SCC(=O)c2ccccc2)nnc1-c1c[nH]c2ccccc12 [Compound 6a] | -14.8
* C=CCn1c(SC/C(=N\O)c2ccc(Cl)cc2)nnc1-c1c[nH]c2ccccc12 [Compound 7e] | -7.49
* Cc1ccc(/C(CSc2nnc(-c3c[nH]c4ccccc34)n2-c2ccccc2)=N/O)cc1 [Compound 7h] | 85.3

###

Tested on: A549/ATCC
Assay: NCI one-dose assay
Format: cell-based
Conditions: Homo sapiens, Non-small cell lung cancer, read-out: Cell growth inhibition %
Reported property: inhibition at 10 µM (%)

* COc1ccc(/C(CSc2nnc(-c3c[nH]c4ccccc34)n2-c2ccccc2)=N/O)cc1 [Compound 7g] | 65.8
* C=CCn1c(SCC(=O)c2ccc(Br)cc2)nnc1-c1c[nH]c2ccccc12 [Compound 6d] | -3.29
* Cc1ccc(C(=O)CSc2nnc(-c3c[nH]c4ccccc34)n2-c2ccccc2)cc1 [Compound 6h] | 46.7
* C=CCn1c(SC/C(=N\O)c2ccc(Br)cc2)nnc1-c1c[nH]c2ccccc12 [Compound 7d] | 9.17

###

Target: tubulin (Sus scrofa, UniProt P02550+P02554)
Construct: purchased Cytoskeleton Inc., Denver, CO, USA
Sequence (P02554 whole entry): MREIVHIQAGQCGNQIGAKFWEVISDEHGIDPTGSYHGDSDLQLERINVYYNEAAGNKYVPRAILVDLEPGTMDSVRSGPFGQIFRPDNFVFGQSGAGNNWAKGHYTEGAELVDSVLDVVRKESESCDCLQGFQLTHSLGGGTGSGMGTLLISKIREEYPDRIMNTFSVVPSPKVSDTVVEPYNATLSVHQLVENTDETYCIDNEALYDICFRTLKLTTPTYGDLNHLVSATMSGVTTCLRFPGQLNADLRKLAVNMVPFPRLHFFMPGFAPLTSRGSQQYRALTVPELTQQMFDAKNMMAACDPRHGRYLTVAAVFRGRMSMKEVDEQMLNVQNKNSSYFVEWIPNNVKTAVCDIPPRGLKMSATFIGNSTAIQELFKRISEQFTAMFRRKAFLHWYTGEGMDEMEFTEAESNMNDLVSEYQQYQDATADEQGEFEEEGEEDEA
Sequence (P02550 whole entry): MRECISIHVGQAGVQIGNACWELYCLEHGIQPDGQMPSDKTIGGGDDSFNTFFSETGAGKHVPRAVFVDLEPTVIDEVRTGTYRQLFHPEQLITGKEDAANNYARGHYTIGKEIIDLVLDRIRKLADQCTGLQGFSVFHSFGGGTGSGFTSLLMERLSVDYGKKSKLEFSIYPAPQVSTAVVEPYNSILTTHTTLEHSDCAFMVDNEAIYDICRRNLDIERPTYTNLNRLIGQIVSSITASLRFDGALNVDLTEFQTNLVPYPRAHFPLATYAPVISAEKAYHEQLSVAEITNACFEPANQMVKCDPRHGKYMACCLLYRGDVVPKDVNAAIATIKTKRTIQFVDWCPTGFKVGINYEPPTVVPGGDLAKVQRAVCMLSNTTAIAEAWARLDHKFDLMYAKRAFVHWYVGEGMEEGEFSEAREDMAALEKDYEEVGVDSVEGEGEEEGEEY
Experiment: Tubulin polymerization inhibitory assay
Assay type: biochemical
Conditions: conc 0.1 (unit not given; IC50 from this curve in µg/ml)
Response key: T means %inhibition >= 20%; F means %inhibition < 20%.

- O/N=C(\CSc1nnc(-c2c[nH]c3ccccc23)n1-c1ccccc1)c1ccc(Cl)cc1 [Compound 7j]: F
- O/N=C(\CSc1nnc(-c2c[nH]c3ccccc23)n1-c1ccccc1)c1ccc(Br)cc1 [Compound 7i]: T
- COc1ccc(/C=C\c2cc(OC)c(OC)c(OC)c2)cc1O [CA-4, combretastatin A-4, reference compound]: T
- Cc1ccc(C(=O)CSc2nnc(-c3c[nH]c4ccccc34)n2-c2ccccc2)cc1 [Compound 6h]: F
- Cc1ccc(/C(CSc2nnc(-c3c[nH]c4ccccc34)n2-c2ccccc2)=N/O)cc1 [Compound 7h]: F

###

Test system: RPMI-8226
Assay: NCI one-dose assay
Type: cell-based
Details: Homo sapiens, RPMI-8226, Leukemia, read-out: Cell growth inhibition %
Response key: label 1 means inhibition at 10 µM >= 30%; label 0 means inhibition at 10 µM < 30%.

* C=CCn1c(SCC(=O)c2ccccc2)nnc1-c1c[nH]c2ccccc12 [Compound 6a] | label 0
* C=CCn1c(SC/C(=N\O)c2ccccc2)nnc1-c1c[nH]c2ccccc12 [Compound 7a] | label 0
* Cc1ccc(C(=O)CSc2nnc(-c3c[nH]c4ccccc34)n2-c2ccccc2)cc1 [Compound 6h] | label 1
* C=CCn1c(SCC(=NO)c2ccc(OC)cc2)nnc1-c1c[nH]c2ccccc12 [Compound 7b] | label 0
* O=C(CSc1nnc(-c2c[nH]c3ccccc23)n1-c1ccccc1)c1ccc(Br)cc1 [Compound 6i] | label 1
* O/N=C(\CSc1nnc(-c2c[nH]c3ccccc23)n1-c1ccccc1)c1ccc(Cl)cc1 [Compound 7j] | label 1
* O/N=C(\CSc1nnc(-c2c[nH]c3ccccc23)n1-c1ccccc1)c1ccc(Br)cc1 [Compound 7i] | label 1
* COc1ccc(C(=O)CSc2nnc(-c3c[nH]c4ccccc34)n2-c2ccccc2)cc1 [Compound 6g] | label 0
* C=CCn1c(SCC(=O)c2ccc(Br)cc2)nnc1-c1c[nH]c2ccccc12 [Compound 6d] | label 0
* O=C(CSc1nnc(-c2c[nH]c3ccccc23)n1-c1ccccc1)c1ccc(Cl)cc1 [Compound 6j] | label 0
* C=CCn1c(SC/C(=N\O)c2ccc(Br)cc2)nnc1-c1c[nH]c2ccccc12 [Compound 7d] | label 1

###

Each entry below carries its recorded IC50.
Biological target: tubulin (Sus scrofa, UniProt P02550+P02554)
Construct: purchased Cytoskeleton Inc., Denver, CO, USA
Experiment: Tubulin polymerization inhibitory assay
Format: biochemical
Conditions: read-out: Tub. IC50±SD (converted)
Reported property: IC50 (µM)

- O/N=C(\CSc1nnc(-c2c[nH]c3ccccc23)n1-c1ccccc1)c1ccc(Br)cc1: 3.03
- O/N=C(\CSc1nnc(-c2c[nH]c3ccccc23)n1-c1ccccc1)c1ccc(Cl)cc1: 6.26
- Cc1ccc(/C(CSc2nnc(-c3c[nH]c4ccccc34)n2-c2ccccc2)=N/O)cc1: 18.4
- Cc1ccc(C(=O)CSc2nnc(-c3c[nH]c4ccccc34)n2-c2ccccc2)cc1: 9.51

###

Test system: HOP-62
Assay: NCI one-dose assay
Type: cell-based
Details: Homo sapiens, HOP-62, Non-small cell lung cancer, read-out: Cell growth inhibition %
Each entry below carries its recorded inhibition at 10 µM.
Reported property: inhibition at 10 µM

• O/N=C(\CSc1nnc(-c2c[nH]c3ccccc23)n1-c1ccccc1)c1ccc(Br)cc1 = 155%
• C=CCn1c(SC/C(=N\O)c2ccc(C)cc2)nnc1-c1c[nH]c2ccccc12 = 8.72%
• C=CCn1c(SCC(=O)c2ccc(C)cc2)nnc1-c1c[nH]c2ccccc12 = 9.23%
• O/N=C(\CSc1nnc(-c2c[nH]c3ccccc23)n1-c1ccccc1)c1ccc(Cl)cc1 = 164%
• C=CCn1c(SC/C(=N\O)c2ccc(Br)cc2)nnc1-c1c[nH]c2ccccc12 = 0.14%
• O=C(CSc1nnc(-c2c[nH]c3ccccc23)n1-c1ccccc1)c1ccccc1 = 76.6%
• Cc1ccc(/C(CSc2nnc(-c3c[nH]c4ccccc34)n2-c2ccccc2)=N/O)cc1 = 157%
• O=C(CSc1nnc(-c2c[nH]c3ccccc23)n1-c1ccccc1)c1ccc(Br)cc1 = 26.4%

###

Tested on: MDA-MB-435
Assay: NCI one-dose assay
Format: cell-based
Conditions: Homo sapiens, MDA-MB-435, Melanoma, read-out: Cell growth inhibition %
Each entry below carries its recorded inhibition at 10 µM.
Reported property: inhibition at 10 µM (%)

- C=CCn1c(SCC(=O)c2ccc(C)cc2)nnc1-c1c[nH]c2ccccc12: -2.15
- C=CCn1c(SCC(=O)c2ccccc2)nnc1-c1c[nH]c2ccccc12: -5.02
- Cc1ccc(/C(CSc2nnc(-c3c[nH]c4ccccc34)n2-c2ccccc2)=N/O)cc1: 200
- C=CCn1c(SCC(=O)c2ccc(Br)cc2)nnc1-c1c[nH]c2ccccc12: -8.05

###

System: MALME-3M
Test: NCI one-dose assay
Assay type: cell-based
Conditions: Homo sapiens, Melanoma, read-out: Cell growth inhibition %
Each entry below carries its recorded inhibition at 10 µM.
Reported property: inhibition at 10 µM (%)

- C=CCn1c(SC/C(=N\O)c2ccc(Br)cc2)nnc1-c1c[nH]c2ccccc12: 4.84
- C=CCn1c(SCC(=O)c2ccc(C)cc2)nnc1-c1c[nH]c2ccccc12: 10.5
- C=CCn1c(SC/C(=N\O)c2ccc(C)cc2)nnc1-c1c[nH]c2ccccc12: 9.17
- C=CCn1c(SCC(=O)c2ccc(Cl)cc2)nnc1-c1c[nH]c2ccccc12: 9.28
- C=CCn1c(SC/C(=N\O)c2ccc(Cl)cc2)nnc1-c1c[nH]c2ccccc12: 15.6
- C=CCn1c(SCC(=O)c2ccc(OC)cc2)nnc1-c1c[nH]c2ccccc12: 5.32
- COc1ccc(/C(CSc2nnc(-c3c[nH]c4ccccc34)n2-c2ccccc2)=N/O)cc1: 26.9
- C=CCn1c(SC/C(=N\O)c2ccccc2)nnc1-c1c[nH]c2ccccc12: 7.6

###

Test system: OVCAR-4
Assay: NCI one-dose assay
Assay type: cell-based
Settings: Homo sapiens, OVCAR-4, Ovarian cancer, read-out: Cell growth inhibition %
Protocol: The National Cancer Institute (NCI), Bethesda, USA, selected the final compounds 6a–j and 7a–j for in vitro anticancer screening. An initial in vitro single-dose anticancer experiment was performed with the entire NCI 60 cell lines derived from nine tumor subpanel cancer cell lines. The results for each compound were illustrated as a mean graph showing the percentage growth of treated cells compared to untreated control cells (see Supplementary Materials). […]
Reported property: inhibition at 10 µM (%)

- Cc1ccc(/C(CSc2nnc(-c3c[nH]c4ccccc34)n2-c2ccccc2)=N/O)cc1: 187
- O=C(CSc1nnc(-c2c[nH]c3ccccc23)n1-c1ccccc1)c1ccc(Br)cc1: 53.8
- C=CCn1c(SCC(=O)c2ccc(C)cc2)nnc1-c1c[nH]c2ccccc12: -10.4
- C=CCn1c(SC/C(=N\O)c2ccc(Br)cc2)nnc1-c1c[nH]c2ccccc12: 24.5
- O=C(CSc1nnc(-c2c[nH]c3ccccc23)n1-c1ccccc1)c1ccc(Cl)cc1: 85.1
- C=CCn1c(SC/C(=N\O)c2ccc(C)cc2)nnc1-c1c[nH]c2ccccc12: 6.11
- O/N=C(\CSc1nnc(-c2c[nH]c3ccccc23)n1-c1ccccc1)c1ccc(Br)cc1: 183
- C=CCn1c(SCC(=O)c2ccc(Br)cc2)nnc1-c1c[nH]c2ccccc12: -8.69
